pKi: −log10 of the molar value.
Prothrombin (Bos taurus) pKi, compiled from various sources.
observation_type: pKi

INSERT INTO measurements (compound, observation_type, censoring_qualifier, value_observed) VALUES
  ('N=C(N)NCCC[C@H](NC(=O)[C@@H](CO)NS(=O)(=O)Cc1ccccc1)C(=O)NCc1ccc(C(=N)N)cc1', 'pKi', '=', 5.33),
  ('N#Cc1cccc(CS(=O)(=O)N[C@H](CC2CCCCC2)C(=O)N2CCC[C@H]2C(=O)NCc2ccc(C(=N)N)cc2)c1', 'pKi', '>', 9.00),
  ('N=C(N)c1ccc(CNC(=O)[C@H](CCC(=O)O)NC(=O)[C@@H](CCc2ccncc2)NS(=O)(=O)Cc2ccc(O)cc2)cc1', 'pKi', '=', 4.00),
  ('N=C(N)c1ccc(CNC(=O)CNC(=O)[C@@H](CCc2ccncc2)NS(=O)(=O)Cc2ccccc2)cc1', 'pKi', '=', 6.15),
  ('N=C(N)c1ccc(CNC(=O)[C@H](CCC(=O)NCc2ccccc2)NC(=O)[C@@H](CCc2ccncc2)NS(=O)(=O)Cc2ccccc2)cc1', 'pKi', '=', 5.77),
  ('C[C@@H](O)[C@H](NC(=O)[C@@H](CO)NS(=O)(=O)Cc1ccccc1)C(=O)NCc1ccc(C(=N)N)cc1', 'pKi', '=', 5.40),
  ('N=C(N)c1ccc(CNC(=O)[C@H](CCC(=O)O)NC(=O)[C@@H](CCc2ccccc2)NS(=O)(=O)Cc2cccc([N+](=O)[O-])c2)cc1', 'pKi', '=', 4.89),
  ('CC(C)(C)OC(=O)CC[C@H](NC(=O)[C@@H](CCc1ccncc1)NS(=O)(=O)Cc1ccc([N+](=O)[O-])cc1)C(=O)NCc1ccc(C(=N)N)cc1', 'pKi', '=', 5.85),
  ('COC(=O)C1CCCCN1C(=O)C(Cc1cccc(C(=N)N)c1)NS(=O)(=O)c1ccc2ccccc2c1 (racemic)', 'pKi', '=', 7.15),
  ('N=C(N)c1ccc(CNC(=O)[C@@H]2Cc3cn(nn3)Cc3ccc(cc3)Cn3cc(nn3)C[C@@H](NS(=O)(=O)Cc3ccccc3)C(=O)N2)cc1', 'pKi', '=', 6.66),
  ('N=C(N)c1ccc(CNC(=O)[C@H](CO)NC(=O)[C@@H](CO)NS(=O)(=O)Cc2ccc(C(=O)O)cc2)cc1', 'pKi', '=', 3.92),
  ('CC(C)(C)OC[C@@H](NS(=O)(=O)Cc1ccccc1)C(=O)N[C@@H](CCc1ccccc1)C(=O)NCc1ccc(C(=N)N)cc1', 'pKi', '=', 7.32),
  ('N=C(N)c1ccc(CNC(=O)CNC(=O)[C@@H](CCc2ccccc2)NS(=O)(=O)Cc2cc[n+]([O-])cc2)cc1', 'pKi', '=', 4.80),
  ('N=C(N)c1cccc(CC(NS(=O)(=O)c2cccc3cccnc23)C(=O)N2CCC(C(=O)O)CC2)c1 (racemic)', 'pKi', '=', 3.90),
  ('COC(=O)Cc1ccc(CS(=O)(=O)N[C@H](CCc2ccccc2)C(=O)NCC(=O)NCc2ccc(C(=N)N)cc2)cc1', 'pKi', '=', 5.74),
  ('CS(=O)(=O)N[C@H](CCc1ccccc1)C(=O)NCC(=O)NCc1ccc(C(=N)N)cc1', 'pKi', '=', 5.89),
  ('COC(=O)c1ccc(CS(=O)(=O)N[C@H](CO)C(=O)N[C@@H](CO)C(=O)NCc2ccc(C(=N)N)cc2)cc1', 'pKi', '=', 5.38),
  ('N=C(N)c1ccc(CNC(=O)[C@@H]2CCCN2C(=O)[C@@H](CC2CCCCC2)NS(=O)(=O)Cc2cccc(CN)c2)cc1', 'pKi', '=', 8.49),
  ('CC(C)(C)OC[C@@H](NS(=O)(=O)Cc1ccccc1)C(=O)N[C@@H](CCCCNC(=O)C(F)(F)F)C(=O)NCc1ccc(C(=N)N)cc1', 'pKi', '=', 8.54),
  ('N=C(N)c1ccc(CNC(=O)CNC(=O)[C@H](NS(=O)(=O)Cc2ccccc2)C2Cc3ccccc3C2)cc1', 'pKi', '=', 6.82),
  ('N=C(N)c1ccc(CNC(=O)CNC(=O)[C@@H](CCc2ccccc2)NS(=O)(=O)NC2CCCCC2)cc1.O=C(O)C(F)(F)F', 'pKi', '=', 5.27),
  ('N=C(N)c1ccc(CNC(=O)CNC(=O)[C@@H](CC2CCCCC2)NS(=O)(=O)Cc2ccccc2)cc1', 'pKi', '=', 7.64),
  ('N=C(N)c1ccc(CNC(=O)[C@H](CO)NC(=O)C(CCc2ccncc2)NS(=O)(=O)Cc2ccncc2)cc1 (some centres unmarked)', 'pKi', '=', 5.20),
  ('Nc1cccc(CC(NS(=O)(=O)c2ccc3ccccc3c2)C(=O)N2CCC(C(=O)O)CC2)c1 (racemic)', 'pKi', '=', 3.14),
  ('CC1CCN(C(=O)C(Cc2cccc(C(=N)N)c2)NS(=O)(=O)c2ccc3ccccc3c2)C(C(=O)O)C1 (racemic)', 'pKi', '=', 6.92),
  ('N=C(N)c1ccc(CNC(=O)[C@H](CCCCNC(=O)CCC(=O)O)NC(=O)[C@@H](CC2CCCCC2)NS(=O)(=O)Cc2ccccc2)cc1', 'pKi', '=', 8.68);
